These data points were gathered from PubChem BioAssay (Tox21).

- targetSystem: Nuclear receptor subfamily 1 group I member 3 (Homo sapiens) (UniProt Q14994)
- Sequence (Q14994 whole entry, looked up): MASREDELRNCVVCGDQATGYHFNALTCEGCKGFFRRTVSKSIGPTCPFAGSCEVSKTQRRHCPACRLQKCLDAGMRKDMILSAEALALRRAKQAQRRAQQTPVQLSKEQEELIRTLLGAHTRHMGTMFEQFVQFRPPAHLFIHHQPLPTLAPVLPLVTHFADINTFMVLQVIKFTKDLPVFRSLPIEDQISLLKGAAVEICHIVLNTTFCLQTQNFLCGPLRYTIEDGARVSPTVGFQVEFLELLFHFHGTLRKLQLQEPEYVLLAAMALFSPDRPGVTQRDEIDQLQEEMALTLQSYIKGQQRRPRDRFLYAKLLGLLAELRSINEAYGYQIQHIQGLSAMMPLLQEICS
- protocolText: qHTS assay to identify small molecule agonists of the constitutive androstane receptor (CAR) signaling pathway (AID 1224839); also: nearly all actives have a fitted effect of over 15% in size;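 as to activation: HepG2 cells stably carrying human CAR and a CYP2B6 luciferase reporter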
- recordedConditions: HepG2 hCAR CYP2B6-luciferase, agonist mode, 24 h; series mostly up to 92.4 µM
Results filed as inconclusive are left out. Active and inactive are the calls of the source. Calls follow the shape of the dose curve; as a rule, active = well fitted activation curve with a large enough effect in the repeat runs; inconclusive = weak or mixed curves; inactive = no such curve, though single readings can be large or run the other way.
Form entry, call: pick from YES for active, NO for inactive

# input GET /call?item= `CCc1cc2c(s1)-n1c(C)nnc1CN=C2c1ccccc1Cl` returns the recorded outcome of this test.
# output NO

# input Consider next the compound `ClC(Br)Br` in the same way.
# output NO

# input Then `Cc1ccccc1CO[C@@H]1C[C@@]2(C(C)C)CC[C@]1(C)O2` ?
# output NO

# input // repeat for `CN1CCC(N(Cc2ccccc2)c2ccccc2)CC1` and report
# output NO

# input Next entry: `COC(=O)c1ccccc1S(=O)(=O)NC(=O)Nc1nc(C)cc(C)n1`
# output NO

# input Can you handle `Clc1cccc(N2CCNCC2)c1` next?
# output NO

# input Would you kindly repeat that for `[Cl][Sn]([Cl])([Cl])[Cl]` ?
# output NO

# input Another compound: CCCSP(=S)(OCC)Oc1ccc(Cl)cc1Cl (centres undefined)
# output YES

# input // next record `CCCSC(=O)N(CCC)CCC`
# output NO
